Molecular target: HER2/V777L (Homo sapiens, UniProt P04626, V777L)
Sequence (P04626 23-1255 V777L): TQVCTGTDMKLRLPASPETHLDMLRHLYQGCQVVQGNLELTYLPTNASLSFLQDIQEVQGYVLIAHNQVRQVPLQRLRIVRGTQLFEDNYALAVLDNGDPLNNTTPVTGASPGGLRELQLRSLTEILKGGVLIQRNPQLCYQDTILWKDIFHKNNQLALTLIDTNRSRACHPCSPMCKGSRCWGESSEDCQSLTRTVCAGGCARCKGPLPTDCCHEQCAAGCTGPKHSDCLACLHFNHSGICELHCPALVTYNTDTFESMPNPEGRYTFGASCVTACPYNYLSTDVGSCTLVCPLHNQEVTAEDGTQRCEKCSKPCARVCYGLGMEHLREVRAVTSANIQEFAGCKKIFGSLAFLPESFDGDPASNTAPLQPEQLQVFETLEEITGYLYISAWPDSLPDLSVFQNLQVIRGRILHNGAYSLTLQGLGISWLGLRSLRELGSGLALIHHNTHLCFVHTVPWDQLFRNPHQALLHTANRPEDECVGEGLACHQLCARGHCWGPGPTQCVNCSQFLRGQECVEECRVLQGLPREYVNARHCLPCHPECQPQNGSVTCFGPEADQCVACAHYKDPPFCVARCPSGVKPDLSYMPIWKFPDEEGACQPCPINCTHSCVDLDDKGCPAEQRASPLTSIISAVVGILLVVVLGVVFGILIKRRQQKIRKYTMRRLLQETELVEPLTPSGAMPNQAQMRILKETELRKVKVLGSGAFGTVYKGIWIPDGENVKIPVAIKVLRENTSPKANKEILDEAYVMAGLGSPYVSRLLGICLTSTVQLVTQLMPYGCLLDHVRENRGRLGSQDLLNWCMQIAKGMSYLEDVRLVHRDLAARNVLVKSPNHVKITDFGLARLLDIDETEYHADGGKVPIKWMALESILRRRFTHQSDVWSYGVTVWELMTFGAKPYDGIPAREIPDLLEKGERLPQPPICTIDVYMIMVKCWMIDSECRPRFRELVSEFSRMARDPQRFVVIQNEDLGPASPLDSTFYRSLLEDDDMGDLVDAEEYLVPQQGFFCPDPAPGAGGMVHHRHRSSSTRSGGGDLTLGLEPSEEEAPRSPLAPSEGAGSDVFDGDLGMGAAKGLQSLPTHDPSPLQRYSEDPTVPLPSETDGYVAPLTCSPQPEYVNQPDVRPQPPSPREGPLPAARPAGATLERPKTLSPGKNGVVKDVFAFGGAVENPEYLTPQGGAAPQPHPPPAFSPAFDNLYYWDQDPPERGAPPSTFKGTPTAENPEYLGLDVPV
Test: In-Cell Western phospho-HER2, MCF10A_HER2/V777L
pIC50: −log10 of the molar value.

# compound, pIC50
records = [
    ("C=CC(=O)N1CCC(Oc2cc3c(Nc4ccc(Cl)c(Cl)c4F)ncnc3cc2OC)CC1 [Poziotinib, poziotinib]", 9.09),
    ("C=CC(=O)N1C[C@H](n2c(C#CC3CC3)c(C(=O)N[C@H](C)c3ccccc3)c3c(N)ncnc32)C[C@@H]1C [TAS2940]", 8.81),
]

====

Biological target: EGFR/V769_D770insASV (Homo sapiens, UniProt P00533, INS769ASV)
Experiment: In-Cell Western phospho-EGFR, MCF10A_EGFR/V769_D770insASV

# compoundStructureString, IC50
records = [
    ("C=CC(=O)N1C[C@H](n2c(C#CC3CC3)c(C(=O)N[C@H](C)c3ccccc3)c3c(N)ncnc32)C[C@@H]1C", "5.64 nM"),
]

====

Molecular target: UniProtKB P00533
Assay: In-Cell Western phospho-EGFR, MCF10A_EGFR
pIC50: −log10 of the molar value.

# molecule, systemName, pIC50
rows = [
    ("C=CC(=O)N1C[C@H](n2c(C#CC3CC3)c(C(=O)N[C@H](C)c3ccccc3)c3c(N)ncnc32)C[C@@H]1C [TAS2940]", "UniProtKB P00533", 8.03),
]

====

Molecular target: WT EGFR (EGF+) (Homo sapiens)
Assay: In-Cell Western phospho-EGFR, MCF10A_EGFR

# molecule, IC50 / nM
records = [
    ("C=CC(=O)N1C[C@H](n2c(C#CC3CC3)c(C(=O)N[C@H](C)c3ccccc3)c3c(N)ncnc32)C[C@@H]1C [TAS2940]", 0.804),
]

====

Target: HER2/L755S (Homo sapiens, UniProt P04626, L755S)
Sequence (P04626 23-1255 L755S): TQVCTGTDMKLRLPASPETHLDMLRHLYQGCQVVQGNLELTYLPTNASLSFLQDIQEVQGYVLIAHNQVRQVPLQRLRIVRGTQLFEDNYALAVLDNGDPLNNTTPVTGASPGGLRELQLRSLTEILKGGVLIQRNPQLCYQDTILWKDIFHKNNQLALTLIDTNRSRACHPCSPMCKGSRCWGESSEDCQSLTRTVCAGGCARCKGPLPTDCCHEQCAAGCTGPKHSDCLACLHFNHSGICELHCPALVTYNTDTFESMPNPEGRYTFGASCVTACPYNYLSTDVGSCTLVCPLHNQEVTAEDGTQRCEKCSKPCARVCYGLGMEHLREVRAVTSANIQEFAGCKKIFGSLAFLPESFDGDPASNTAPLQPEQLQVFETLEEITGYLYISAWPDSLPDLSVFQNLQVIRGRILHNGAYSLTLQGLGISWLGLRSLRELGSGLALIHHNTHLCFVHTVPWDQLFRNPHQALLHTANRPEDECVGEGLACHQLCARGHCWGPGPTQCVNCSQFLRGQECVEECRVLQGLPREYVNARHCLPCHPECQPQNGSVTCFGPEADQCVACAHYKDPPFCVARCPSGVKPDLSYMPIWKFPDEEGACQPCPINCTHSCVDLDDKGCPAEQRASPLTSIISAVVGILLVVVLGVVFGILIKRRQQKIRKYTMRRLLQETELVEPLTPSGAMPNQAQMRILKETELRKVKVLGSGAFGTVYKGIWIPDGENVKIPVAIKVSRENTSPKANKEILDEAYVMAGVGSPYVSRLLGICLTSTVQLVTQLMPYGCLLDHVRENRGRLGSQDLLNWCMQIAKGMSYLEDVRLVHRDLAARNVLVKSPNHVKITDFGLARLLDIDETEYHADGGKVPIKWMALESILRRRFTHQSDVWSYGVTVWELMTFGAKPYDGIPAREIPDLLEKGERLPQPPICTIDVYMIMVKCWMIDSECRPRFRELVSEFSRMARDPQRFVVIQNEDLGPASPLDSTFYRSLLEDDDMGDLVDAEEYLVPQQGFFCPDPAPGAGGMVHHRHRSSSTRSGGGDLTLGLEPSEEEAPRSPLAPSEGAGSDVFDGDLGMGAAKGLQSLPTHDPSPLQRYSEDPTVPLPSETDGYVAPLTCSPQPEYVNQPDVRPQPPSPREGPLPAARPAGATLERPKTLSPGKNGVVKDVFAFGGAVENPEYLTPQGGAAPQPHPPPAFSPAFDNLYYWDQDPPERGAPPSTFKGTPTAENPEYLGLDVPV
Assay: In-Cell Western phospho-HER2, MCF10A_HER2/L755S
Recorded IC50 values for a group of compounds are listed next.

# compound, IC50 [nM]
records = [
    ("C=CC(=O)N1C[C@H](n2c(C#CC3CC3)c(C(=O)N[C@H](C)c3ccccc3)c3c(N)ncnc32)C[C@@H]1C [TAS2940]", 3.74),
    ("C=CC(=O)N1CCC(Oc2cc3c(Nc4ccc(Cl)c(Cl)c4F)ncnc3cc2OC)CC1 [Poziotinib, poziotinib]", 3.52),
]

====

Target: EGFR/D770_N771insSVD (Homo sapiens, UniProt P00533, INS770SVD)
Test: In-Cell Western phospho-EGFR, MCF10A_EGFR/D770_N771insSVD
pIC50: −log10 of the molar value.

# molecule, pIC50
measured = [
    ("C=CC(=O)N1C[C@H](n2c(C#CC3CC3)c(C(=O)N[C@H](C)c3ccccc3)c3c(N)ncnc32)C[C@@H]1C [TAS2940]", 8.53),
]

====

Molecular target: HER2/S310F (Homo sapiens, UniProt P04626, S310F)
Sequence (P04626 23-1255 S310F): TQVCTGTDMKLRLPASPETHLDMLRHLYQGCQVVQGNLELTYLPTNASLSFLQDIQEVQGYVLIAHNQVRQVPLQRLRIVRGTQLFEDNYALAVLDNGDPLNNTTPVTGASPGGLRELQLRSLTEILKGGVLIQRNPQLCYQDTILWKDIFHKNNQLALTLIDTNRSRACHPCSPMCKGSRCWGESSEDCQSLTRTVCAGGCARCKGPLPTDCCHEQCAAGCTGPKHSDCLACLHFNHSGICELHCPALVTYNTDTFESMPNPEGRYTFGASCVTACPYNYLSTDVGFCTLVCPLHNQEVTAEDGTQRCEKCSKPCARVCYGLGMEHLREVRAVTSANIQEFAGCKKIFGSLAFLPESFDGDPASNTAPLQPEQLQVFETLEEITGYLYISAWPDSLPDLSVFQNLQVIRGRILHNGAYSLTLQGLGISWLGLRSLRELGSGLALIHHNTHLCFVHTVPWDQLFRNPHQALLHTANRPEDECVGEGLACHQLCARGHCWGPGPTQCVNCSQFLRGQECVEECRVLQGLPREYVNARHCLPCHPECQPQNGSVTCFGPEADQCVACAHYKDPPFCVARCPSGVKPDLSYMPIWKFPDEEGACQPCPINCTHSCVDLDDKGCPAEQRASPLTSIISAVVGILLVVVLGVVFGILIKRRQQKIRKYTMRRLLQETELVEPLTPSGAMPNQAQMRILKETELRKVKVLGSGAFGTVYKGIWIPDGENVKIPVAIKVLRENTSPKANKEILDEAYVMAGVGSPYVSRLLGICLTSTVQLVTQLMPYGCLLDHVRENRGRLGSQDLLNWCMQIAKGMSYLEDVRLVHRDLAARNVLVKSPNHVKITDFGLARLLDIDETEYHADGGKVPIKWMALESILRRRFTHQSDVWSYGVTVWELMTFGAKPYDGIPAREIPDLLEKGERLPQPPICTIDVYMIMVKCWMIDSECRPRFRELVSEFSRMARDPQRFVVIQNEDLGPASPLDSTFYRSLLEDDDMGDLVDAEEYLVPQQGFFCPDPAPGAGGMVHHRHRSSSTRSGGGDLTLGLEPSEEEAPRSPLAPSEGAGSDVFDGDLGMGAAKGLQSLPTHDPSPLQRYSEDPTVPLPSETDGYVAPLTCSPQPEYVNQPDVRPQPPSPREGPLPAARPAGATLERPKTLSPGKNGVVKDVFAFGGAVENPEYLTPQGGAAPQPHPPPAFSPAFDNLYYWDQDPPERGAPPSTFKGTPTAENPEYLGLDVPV
Assay: In-Cell Western phospho-HER2, MCF10A_HER2/S310F
Assay type: cell-based

# compound, IC50
rows = [
    ("C=CC(=O)N1C[C@H](n2c(C#CC3CC3)c(C(=O)N[C@H](C)c3ccccc3)c3c(N)ncnc32)C[C@@H]1C [TAS2940]", "1.98 nM"),
    ("C=CC(=O)N1CCC(Oc2cc3c(Nc4ccc(Cl)c(Cl)c4F)ncnc3cc2OC)CC1 [Poziotinib, poziotinib]", "0.932 nM"),
]
